Molecular target: EcParvulin (Escherichia coli, UniProt P0A9L5)
Sequence (P0A9L5 whole entry): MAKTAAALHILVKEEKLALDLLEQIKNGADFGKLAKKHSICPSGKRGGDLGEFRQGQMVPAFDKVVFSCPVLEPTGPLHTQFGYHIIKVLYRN
Experiment: protease-coupled PPIase assay, EcParvulin
Format: biochemical
endpoint: IC50

Reference set (3 entries):
compound="Cc1c(Cl)cc(NC(=O)CC(C)CC(C)(C)C)c(O)c1Cl (stereo not shown)" target_desc="EcParvulin (Escherichia coli, UniProt P0A9L5)" result="10 to 50 µM"
compound=CCc1c(Cl)cc(NCc2ccccc2Sc2ccc(Cl)cc2)c(O)c1Cl target_desc="EcParvulin (Escherichia coli, UniProt P0A9L5)" result="> 100 µM"
compound=Cc1cccc(C)c1NC(=O)Nc1cc(Cl)c(O)c(Cl)c1 target_desc="EcParvulin (Escherichia coli, UniProt P0A9L5)" result="10 to 50 µM"

Next item in the queue.
**Query** Look at this compound and give its reported IC50. O=C(Nc1cc(Cl)c(O)c(Cl)c1)NC1CCCCC1
**Result** > 100 µM

====

Experiment: WST-1 cytotoxicity assay, HeLa
Type: cell-based
Settings: human, HeLa cells (cervix carcinoma); WST-1, 48 h incubation; read-out: EC50 class, cytotoxic effect, CL-2 (HeLa)
Each entry below carries its recorded EC50 at 48 h.

**Query** Tell me the measured EC50 at 48 h of O=C(Nc1cc(Cl)cc(Cl)c1O)c1ccc(-c2ccccc2)cc1 [Compound 645] , please.
**Result** < 10 µM

**Query** GET /values?readout=EC50 at 48 h&item= O=C(Nc1cc(Cl)c(O)c(NCc2ccccc2Sc2ccc(Cl)cc2)c1)N1CCOCC1 [Compound 654]
**Result** 10 to 50 µM

**Query** // lookup EC50 at 48 h for Oc1c(F)cccc1NCc1ccccc1Sc1ccc(Cl)cc1 [Compound 357]
**Result** < 10 µM

**Query** So what does the record say about EC50 at 48 h for Oc1c(Cl)cc(Cl)cc1NCc1ccccc1Sc1ccccc1Cl [Compound 332] ?
**Result** 10 to 50 µM

**Query** # input compound: CC(CC(=O)Nc1cc(Cl)c(O)c(Cl)c1)CC(C)(C)C (centres unmarked) [Compound 1273] ; wanted: its EC50 at 48 h
**Result** 50 to 100 µM
